Data origin, for the record: PubChem BioAssay (NCI)

Could you please report measured TGI for the items listed next?
# Test system: EKVX NSCLC
# PROCEDURE DETAILS: NCI tumour cell line growth inhibition, 48 h

Query :: Request - read-out TGI | tested on EKVX NSCLC | compound `C=C(C)CN(CC#N)CC(=C)C`
Result :: > 100 µM

Query :: Follow-up item: `O=C([CH-]C(=O)c1ccccc1)c1ccccc1.O=C([CH-]C(=O)c1ccccc1)c1ccccc1.O=C([CH-]C(=O)c1ccccc1)c1ccccc1.[OH3+].[Y+3]`
Result :: 23.1 µM

Query :: Follow-up item: COc1cc2c(cc1OCCCCCCN1CCN(c3ncnc4ccccc34)CC1)N=CC1CCCN1C2=O (stereo not given)
Result :: 2.01 µM

Query :: Follow-up item: `CCSC1=N/C(=C\c2ccco2)C(Cl)=N1`
Result :: > 100 µM

Query :: Follow-up item: `Cc1ccc(-c2nc(N)nc3c2nnn3Cc2cccc(CO[C@H]3CCOC3)n2)o1`
Result :: > 100 µM

Query :: Follow-up item: `CCN(CC)CCNC(=O)c1nn(C)c(=S)[nH]c1=S`
Result :: > 100 µM

Query :: Follow-up item: `CCC(=O)NC(Nc1ccc(O)cc1)(C(F)(F)F)C(F)(F)F`
Result :: > 100 µM

Query :: Follow-up item: `O=C(O)c1ccc(Nc2nc3ccccc3nc2-c2cccs2)cc1`
Result :: > 100 µM

Query :: Follow-up item: `COC(=O)c1c2c(c(C)[n+]([O-])c1C)C(=O)C=C(NCc1ccc(OC)cc1)C2=O`
Result :: 5.24 µM

Query :: Follow-up item: `O=C(N/N=C/c1ccccc1Cl)c1ccccc1Nc1ccnc(C(F)(F)F)c1`
Result :: 5.94 µM

* * *

# Test system: HCT-15 colon
# PROCEDURE DETAILS: NCI tumour cell line growth inhibition, 48 h
REPORTED PROPERTY: TGI

Query :: Give its TGI value. Item: `N=C(N)c1csc([C@@H]2O[C@H](CO)[C@@H](O)[C@H]2O)n1`
Result :: > 100 µM

Query :: Follow-up item: `COc1ccc(-c2c(CN3CCOCC3)sc3nc4ccccc4n23)cc1`
Result :: > 95 µM

Query :: Follow-up item: `O=C([CH-]C(=O)c1ccccc1)c1ccccc1.O=C([CH-]C(=O)c1ccccc1)c1ccccc1.O=C([CH-]C(=O)c1ccccc1)c1ccccc1.[OH3+].[Y+3]`
Result :: 22.8 µM

Query :: Follow-up item: `COc1ccc2c(c1)CCc1[nH]c3ccccc3c1CCCC2`
Result :: > 10 µM

Query :: Follow-up item: `O=c1ccnc2c1ccc1[nH]cccc12`
Result :: > 100 µM

Query :: Follow-up item: `O=c1[nH]ccc2nc(N3CCC(O)CC3)nc(Nc3cccc(C(F)(F)F)c3)c12`
Result :: 31.6 µM

Query :: Follow-up item: CCC[CH2][Sn]([CH2]CCC)([O]C(=O)C(N)CSC)[O]C(=O)C(N)CSC (stereo not given)
Result :: 25.4 µM

Query :: Follow-up item: `O=C1c2c(ccc3c2CCC3)CC12Cc1cc3c(cc1C2)CCC3`
Result :: > 100 µM

Query :: Follow-up item: COC(=O)C12CC(c3ccccc31)C1C(=O)OC(=O)C12 (stereo not given)
Result :: > 100 µM

Query :: Follow-up item: `CN(/N=C/c1ccccn1)C1=NCCCCN1`
Result :: > 100 µM
